Source of measurements: patent US20240327421A1

# SUBJECT_OF_TEST: CYP2C9 (Homo sapiens, UniProt P11712)
# Sequence (P11712 whole entry): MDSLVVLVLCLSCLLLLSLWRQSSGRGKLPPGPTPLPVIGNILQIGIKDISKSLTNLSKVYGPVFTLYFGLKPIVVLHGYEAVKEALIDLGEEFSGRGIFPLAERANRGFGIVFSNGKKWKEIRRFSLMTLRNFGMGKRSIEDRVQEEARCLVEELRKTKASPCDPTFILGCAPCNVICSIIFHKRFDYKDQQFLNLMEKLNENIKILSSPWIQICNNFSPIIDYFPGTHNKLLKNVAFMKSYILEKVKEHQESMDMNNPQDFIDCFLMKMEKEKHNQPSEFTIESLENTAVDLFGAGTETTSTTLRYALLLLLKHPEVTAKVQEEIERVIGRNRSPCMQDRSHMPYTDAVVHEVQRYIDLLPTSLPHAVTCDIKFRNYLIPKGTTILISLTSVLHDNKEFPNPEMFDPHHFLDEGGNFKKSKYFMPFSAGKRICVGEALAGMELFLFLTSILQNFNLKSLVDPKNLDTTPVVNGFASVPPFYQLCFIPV
OBSERVABLE: IC50
Include the unit after the number when you answer.

Exam item: Please tell me the measured IC50 for OC[C@H]1CC[C@H](c2ccc(O)cc2)CC1 [Compound 16] ; system: CYP2C9 (Homo sapiens, UniProt P11712).
Marked response: 34 µM

====

# SUBJECT_OF_TEST: ERα LBD fused to GAL4 DBD (Homo sapiens, UniProt P03372)
# Sequence (P03372 311-547 limits assumed): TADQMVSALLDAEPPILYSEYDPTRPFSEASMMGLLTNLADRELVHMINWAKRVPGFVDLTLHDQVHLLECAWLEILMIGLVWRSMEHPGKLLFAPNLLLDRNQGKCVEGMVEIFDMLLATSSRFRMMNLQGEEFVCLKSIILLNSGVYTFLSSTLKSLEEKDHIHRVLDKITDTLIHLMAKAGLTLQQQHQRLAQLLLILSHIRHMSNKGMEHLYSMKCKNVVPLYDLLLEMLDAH
# MEASUREMENT_DESCRIPTION: GeneBLAzer cell-based transcriptional activation, chimeric ERα
# MEASUREMENT_SETUP: agonist mode
OBSERVABLE: pIC50
The value called pIC50 is obtained by taking minus log10 of the concentration in mol/L.

Exam item: Read off the recorded pIC50 for OC[C@H]1CC[C@H](c2ccc(O)cc2)CC1
Marked response: 6.03
